Tested on: U373: human glioma cell
measurement-protocol: anti-cancer activity test (cytotoxicity), U373
Assay type: cell-based
assay-context: Homo sapiens, U373 MG; U373 cells
property-name: IC50 (µg/mL)
Report the figure in µg/mL without appending any unit label.

Q: Entry under review: N=C(N)NCC(=O)Nc1ccc2c(c1NC(=O)CNC(=N)N)C(=O)c1ccccc1C2=O [Example 10, 1,2-di(guanidinoacetamido)anthraquinone] . Reported IC50?
A: 6.9

Q: Further, for N=C(N)NCC(=O)Nc1ccc(N)c2c1C(=O)c1ccccc1C2=O [Example 2, 4-amino-1-guanido acetamidoanthraquinone] ?
A: 0.6

Q: What do we get for N=C(N)NCC(=O)Nc1ccc2c(c1)C(=O)c1ccc(N)cc1C2=O [Example 7, 6-amino-2-guanidoacetamidoanthraquinone] ?
A: 0.4

----------
System: Lu1: human lung cell
measurement-protocol: anti-cancer activity test (cytotoxicity), Lu1
Assay type: cell-based
assay-context: Homo sapiens; Lu1 cells
IC50 values for the molecules below.
Numeric only. Scale: µg/mL

Completed entries (count: 2):
N=C(N)NCC(=O)Nc1cccc2c1C(=O)c1cccc(N)c1C2=O; 9.3
N=C(N)NCC(=O)Nc1ccc2c(c1)C(=O)c1ccc(NC(=O)CNC(=N)N)cc1C2=O; 12.2

Now take the following molecule into account.
Q: Form field: reported IC50 of "N=C(N)NCC(=O)Nc1ccc(N)c2c1C(=O)c1ccccc1C2=O"
A: 3.1

----------
Tested on: U373: human glioma cell
measurement-protocol: anti-cancer activity test (cytotoxicity), U373
Format: cell-based
assay-context: Homo sapiens, U373 MG; U373 cells
property-name: IC50
In your response, put the unit directly after the numeric value.

N=C(N)NCC(=O)Nc1cccc2c1C(=O)c1cccc(N)c1C2=O; 1 µg/mL
N=C(N)NCC(=O)Nc1ccc2c(c1N)C(=O)c1ccccc1C2=O; 2 µg/mL

# next compound below
Q: Requested field: IC50. Item: "N=C(N)NCC(=O)Nc1ccc2c(c1)C(=O)c1ccc(NC(=O)CNC(=N)N)cc1C2=O"
A: 8.6 µg/mL

----------
target-or-system: HIV-1 RT(p66) (Human immunodeficiency virus type 1 group M subtype B, UniProt P04585)
Construct: 1-10 at 200 μg/ml to HIV-1 RT(p66)
measurement-protocol: anti-virus activity test, HIV-1 RT(p66) inhibition
Assay type: biochemical
assay-context: at 200 μg/ml, HIV-1 RT(p66)
property-name: inhibition at 200 µg/mL (%)
Give the value, in units of %, as a plain number.

N=C(N)NCC(=O)Nc1ccc2c(c1NC(=O)CNC(=N)N)C(=O)c1ccccc1C2=O; 92.3
N=C(N)NCC(=O)Nc1cccc2c1C(=O)c1cccc(N)c1C2=O; 99.6

Consider now this further compound.
Q: So what's the measured inhibition at 200 µg/mL for this one? "N=C(N)NCC(=O)Nc1ccc2c(c1)C(=O)c1ccc(NC(=O)CNC(=N)N)cc1C2=O"
A: 29.3

----------
A collection of compounds and their measured IC50
Tested on: Lu1: human lung cell
measurement-protocol: anti-cancer activity test (cytotoxicity), Lu1
Assay type: cell-based
assay-context: Homo sapiens; Lu1 cells

These solved cases illustrate the format of a correct answer.
N=C(N)NCC(=O)Nc1ccc2c(c1N)C(=O)c1ccccc1C2=O; > 20 µg/mL
N=C(N)NCC(=O)Nc1ccc2c(c1NC(=O)CNC(=N)N)C(=O)c1ccccc1C2=O; > 20 µg/mL

Q: API: value(readout=IC50, system=Lu1: human lung cell) for record "N=C(N)NCC(=O)Nc1ccc2c(c1)C(=O)c1ccc(N)cc1C2=O"
A: > 20 µg/mL
